Listed here are compounds together with their documented pIC50.
System: MOLM14 cells
Assay: Proliferation assay, spheroid-like growth, MOLM14 (MLL-AF9 rearranged)
Assay type: cell-based, human
Settings: Homo sapiens, MOLM-14, 192 h, 8 days, confluence as measure of spheroid size, read-out: spheroid assay_OneTime MOLM14 IC50
Quick note: pIC50 means taking -log10 of the concentration in moles per liter.

Worked cases, answers included:
[
  {
    "compound": "CC(C)[C@H]([C@H]1C[C@@H](N2CC3(COC(=O)N3)C2)C1)N1CC2(CCN(c3ncnnc3Oc3ccc(F)cc3-c3cncnc3C3CC3)C2)C1 (single isomer, unassigned)",
    "experimental_endpoint": "pIC50",
    "meas_value": 7.59
  },
  {
    "compound": "CC(=O)N1CCCC12CN([C@H]1C[C@@H]([C@@H](C(C)C)N3CC4(CCN(c5ncnnc5Oc5ccc(F)cc5-c5cncnc5C5CC5)C4)C3)C1)C2 (single isomer, unassigned)",
    "experimental_endpoint": "pIC50",
    "meas_value": 8.05
  }
]

Switching to the query record.
State its pIC50 on MOLM14 cells: CC(C)[C@@H]([C@H]1C[C@@H](N2CCC3(CC2)COC3)C1)N1CC2(CCN(c3ncnnc3Oc3ccc(F)cc3-c3nnccc3C3CC3)C2)C1 (single isomer, unassigned)
8.00

###

Molecular target: menin/MLL (terbium chelate-labeled menin, FITC-MBM1 peptide) (Homo sapiens, UniProt O00255, T541A)
Construct: Menin (a.a 1-610-6xhis tag)
Sequence (O00255 with tags, fused parts or gaps T541A): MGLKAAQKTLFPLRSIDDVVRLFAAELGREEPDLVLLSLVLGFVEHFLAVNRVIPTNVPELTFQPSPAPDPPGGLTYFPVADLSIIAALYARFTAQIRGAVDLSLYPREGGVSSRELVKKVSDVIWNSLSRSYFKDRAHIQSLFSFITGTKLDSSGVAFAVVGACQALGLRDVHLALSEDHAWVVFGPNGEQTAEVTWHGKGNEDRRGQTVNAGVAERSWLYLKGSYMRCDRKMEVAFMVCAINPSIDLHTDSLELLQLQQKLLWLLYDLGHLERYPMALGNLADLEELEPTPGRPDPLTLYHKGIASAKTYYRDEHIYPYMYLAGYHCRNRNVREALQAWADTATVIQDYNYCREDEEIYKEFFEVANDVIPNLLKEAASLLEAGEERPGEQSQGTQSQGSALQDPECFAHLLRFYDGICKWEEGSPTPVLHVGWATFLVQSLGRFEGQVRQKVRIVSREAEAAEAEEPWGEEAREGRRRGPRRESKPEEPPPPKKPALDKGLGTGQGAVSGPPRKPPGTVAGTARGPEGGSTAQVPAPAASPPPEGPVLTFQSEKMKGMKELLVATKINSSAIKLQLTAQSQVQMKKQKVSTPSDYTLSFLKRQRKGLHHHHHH
Experiment: Menin/MLL homogenous time-resolved fluorescence (HTRF) assay
Assay type: binding
Settings: 30 min incubation
experimental_endpoint: pIC50
Quick note: pIC50 means taking -log10 of the concentration in moles per liter.

Worked cases, answers included:
[
  {
    "compound": "CC(C)C([C@H]1C[C@@H](Nc2ncccn2)C1)N1CC2(CCN(c3ncnnc3Oc3ccc(F)cc3-c3cncnc3C3CC3)C2)C1 (some centres unmarked)",
    "experimental_endpoint": "pIC50",
    "meas_value": 8.32
  },
  {
    "compound": "CC(C)[C@H]([C@H]1C[C@@H](N(C)C2CCOCC2)C1)N1CC2(CCN(c3ncnnc3Oc3ccc(F)cc3-c3cncnc3C3CC3)C2)C1 (single isomer, unassigned)",
    "experimental_endpoint": "pIC50",
    "meas_value": 10.00
  },
  {
    "compound": "CNC(=O)c1coc(N[C@H]2C[C@@H](C(C)N3CC4(CCN(c5ncnnc5Oc5ccc(F)cc5-c5cncnc5C5CC5)C4)C3)C2)n1 (single isomer, unassigned)",
    "experimental_endpoint": "pIC50",
    "meas_value": 9.70
  },
  {
    "compound": "Cc1ncc(-c2cc(F)ccc2Oc2nncnc2N2CCC3(C2)CN([C@@H](C(C)C)[C@H]2C[C@@H](N4CC5(CN(C(=O)C6CC6)C5)C4)C2)C3)c(C2CC2)n1",
    "experimental_endpoint": "pIC50",
    "meas_value": 9.96
  },
  {
    "compound": "CC(C)[C@H]([C@H]1C[C@@H](N2CC[C@H](C(C)(C)O)C2)C1)N1CC2(CCN(c3ncnnc3Oc3ccc(F)cc3-c3cncnc3C3CC3)C2)C1 (single isomer, unassigned)",
    "experimental_endpoint": "pIC50",
    "meas_value": 10.00
  }
]

Switching to the query record.
Fill in the blank: the reported pIC50 of C[C@@H]([C@H]1C[C@@H](N)C1)N1CC2(CCN(c3ncnnc3Oc3ccc(F)cc3-c3cncnc3C3CC3)C2)C1 (single isomer, unassigned) is ____.
9.04
